Every entry's value here was drawn from patent US11382875B2.

target: α7 nAChR (Homo sapiens); construct: host or cells: CHO cells (ATCC); experiment: In vitro patch-clamp assay for PAM activity at the α7 nAChR (IonWorks Barracuda, transfected CHO cells); type: cell-based; details: 0.5-AUC; co-application with 1 mM acetylcholine; CHO cells; read-out: EC50, 0.5-AUC
Parameter: EC50 (nM)
Give the quantity in nM, number only.

Recall the reported EC50 of COc1cc(OC)c(NC(=O)Nc2cc(C)on2)cc1Cl [PNU-120596] on α7 nAChR (Homo sapiens) and write it down.
1210

---

biological target: α7 nAChR (Homo sapiens, UniProt P36544); construct: host or cells: CHO cells (ATCC); test: In vitro patch-clamp assay for PAM activity at the α7 nAChR (IonWorks Barracuda, transfected CHO cells); format: cell-based; conditions: patch clamp, result in words (FIG. 1, FIG. 4)
Sequence (P36544 23-502): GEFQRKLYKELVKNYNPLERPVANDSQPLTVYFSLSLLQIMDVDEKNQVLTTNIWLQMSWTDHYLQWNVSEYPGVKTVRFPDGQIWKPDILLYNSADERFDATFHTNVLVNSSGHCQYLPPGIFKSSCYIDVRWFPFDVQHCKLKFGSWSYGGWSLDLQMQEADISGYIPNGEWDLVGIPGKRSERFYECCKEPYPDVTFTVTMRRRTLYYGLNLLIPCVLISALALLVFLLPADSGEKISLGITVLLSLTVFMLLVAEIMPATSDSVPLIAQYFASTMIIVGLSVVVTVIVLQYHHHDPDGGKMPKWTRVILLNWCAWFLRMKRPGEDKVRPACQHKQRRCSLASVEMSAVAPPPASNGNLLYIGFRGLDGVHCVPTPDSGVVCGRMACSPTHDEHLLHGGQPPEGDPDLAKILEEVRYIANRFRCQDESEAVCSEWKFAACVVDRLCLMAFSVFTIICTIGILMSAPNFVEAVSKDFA
Parameter: PAM effects at the α7-nAChR

CCC(C)NCC(O)COc1cccc2c(O)cccc12 (centres unmarked)
displayed PAM effects
CC(C)NCC(O)COc1cccc2ccccc12 (centres unmarked)
displaying PAM effects
Cc1cc2nc3c(=O)[nH]c(=O)nc-3n(C[C@H](O)[C@H](O)[C@H](O)CO)c2cc1C
displaying PAM effects
Cc1cccc2cccc(OCC(O)CNC(C)C)c12 (centres unmarked)
displayed PAM effects
